# maps each entry to its IC50
Target: human EGFR exon 20 insertion ASV (V769_D770insASV) (Homo sapiens (Human), UniProt P00533, INS769ASV)
Sequence (P00533 other isoform, or with tags, fused parts or gaps ins ASV behind 769): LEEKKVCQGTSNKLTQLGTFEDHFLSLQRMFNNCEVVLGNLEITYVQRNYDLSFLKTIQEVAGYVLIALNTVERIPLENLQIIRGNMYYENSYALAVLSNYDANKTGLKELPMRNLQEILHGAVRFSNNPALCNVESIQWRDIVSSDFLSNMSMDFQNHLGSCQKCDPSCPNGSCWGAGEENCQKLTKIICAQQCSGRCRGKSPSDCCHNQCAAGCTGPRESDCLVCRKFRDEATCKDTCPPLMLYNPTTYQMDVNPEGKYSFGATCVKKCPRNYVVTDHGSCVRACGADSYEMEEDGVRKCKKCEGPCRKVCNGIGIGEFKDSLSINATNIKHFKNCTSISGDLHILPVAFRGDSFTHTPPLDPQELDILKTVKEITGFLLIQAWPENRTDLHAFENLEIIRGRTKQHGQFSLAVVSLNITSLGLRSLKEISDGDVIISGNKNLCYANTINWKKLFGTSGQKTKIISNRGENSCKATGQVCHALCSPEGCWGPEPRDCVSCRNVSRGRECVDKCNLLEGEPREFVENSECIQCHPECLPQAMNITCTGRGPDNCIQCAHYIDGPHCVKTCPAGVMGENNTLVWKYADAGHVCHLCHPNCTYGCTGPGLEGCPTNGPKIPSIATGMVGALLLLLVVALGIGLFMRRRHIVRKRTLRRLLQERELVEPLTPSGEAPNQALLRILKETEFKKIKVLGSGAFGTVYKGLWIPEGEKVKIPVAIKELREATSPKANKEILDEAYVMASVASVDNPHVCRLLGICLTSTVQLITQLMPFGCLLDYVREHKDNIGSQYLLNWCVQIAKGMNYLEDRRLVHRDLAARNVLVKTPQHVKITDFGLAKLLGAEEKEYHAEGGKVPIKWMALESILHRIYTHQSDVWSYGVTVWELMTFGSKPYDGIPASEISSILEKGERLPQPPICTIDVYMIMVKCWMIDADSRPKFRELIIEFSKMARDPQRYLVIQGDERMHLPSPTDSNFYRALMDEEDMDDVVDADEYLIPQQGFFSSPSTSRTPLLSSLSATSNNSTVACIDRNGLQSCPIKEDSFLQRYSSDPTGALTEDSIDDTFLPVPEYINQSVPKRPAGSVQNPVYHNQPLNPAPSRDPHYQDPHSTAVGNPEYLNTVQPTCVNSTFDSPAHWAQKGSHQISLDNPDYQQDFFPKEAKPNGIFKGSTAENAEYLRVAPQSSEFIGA
Assay: Ba/F3-EGFR-Exon20-ASV cell anti-proliferative assay (CellTiter 96 MTS, 72 h)
Conditions: Ba/F3-EGFR-Exon20-ASV cells
readout_label: IC50

{"substance_smiles": "C=CC(=O)Nc1cc(Nc2ncc(C(=O)OC)c(-c3cn(C)c4ccccc34)n2)c(OC)cc1N(C)CCN(C)C", "result": "< 100 nM"}
{"substance_smiles": "C=CC(=O)Nc1cc(Nc2nccc(-c3cn(C)c4cc(C(=O)OC)ccc34)n2)c(OC)cc1N(C)CCN(C)C", "result": "100 to 500 nM"}
{"substance_smiles": "C=CC(=O)Nc1cc(Nc2ncc(C(=O)OC)c(-c3cn(C)c4ccccc34)n2)c(OC)cc1C#CCN(C)C", "result": "100 to 500 nM"}
{"substance_smiles": "C=CC(=O)Nc1cc(Nc2ncc(CC)c(-c3cn(CC(N)=O)c4ccccc34)n2)c(OC)cc1N(C)CCN(C)C", "result": "< 100 nM"}

====

# maps each entry to its pIC50
Target: human EGFR exon 20 insertion NPG (H773_V774insNPG) (Homo sapiens, UniProt P00533, INS773NPG, cells depend on it)
Sequence (P00533 with tags, fused parts or gaps INS773NPG limits assumed): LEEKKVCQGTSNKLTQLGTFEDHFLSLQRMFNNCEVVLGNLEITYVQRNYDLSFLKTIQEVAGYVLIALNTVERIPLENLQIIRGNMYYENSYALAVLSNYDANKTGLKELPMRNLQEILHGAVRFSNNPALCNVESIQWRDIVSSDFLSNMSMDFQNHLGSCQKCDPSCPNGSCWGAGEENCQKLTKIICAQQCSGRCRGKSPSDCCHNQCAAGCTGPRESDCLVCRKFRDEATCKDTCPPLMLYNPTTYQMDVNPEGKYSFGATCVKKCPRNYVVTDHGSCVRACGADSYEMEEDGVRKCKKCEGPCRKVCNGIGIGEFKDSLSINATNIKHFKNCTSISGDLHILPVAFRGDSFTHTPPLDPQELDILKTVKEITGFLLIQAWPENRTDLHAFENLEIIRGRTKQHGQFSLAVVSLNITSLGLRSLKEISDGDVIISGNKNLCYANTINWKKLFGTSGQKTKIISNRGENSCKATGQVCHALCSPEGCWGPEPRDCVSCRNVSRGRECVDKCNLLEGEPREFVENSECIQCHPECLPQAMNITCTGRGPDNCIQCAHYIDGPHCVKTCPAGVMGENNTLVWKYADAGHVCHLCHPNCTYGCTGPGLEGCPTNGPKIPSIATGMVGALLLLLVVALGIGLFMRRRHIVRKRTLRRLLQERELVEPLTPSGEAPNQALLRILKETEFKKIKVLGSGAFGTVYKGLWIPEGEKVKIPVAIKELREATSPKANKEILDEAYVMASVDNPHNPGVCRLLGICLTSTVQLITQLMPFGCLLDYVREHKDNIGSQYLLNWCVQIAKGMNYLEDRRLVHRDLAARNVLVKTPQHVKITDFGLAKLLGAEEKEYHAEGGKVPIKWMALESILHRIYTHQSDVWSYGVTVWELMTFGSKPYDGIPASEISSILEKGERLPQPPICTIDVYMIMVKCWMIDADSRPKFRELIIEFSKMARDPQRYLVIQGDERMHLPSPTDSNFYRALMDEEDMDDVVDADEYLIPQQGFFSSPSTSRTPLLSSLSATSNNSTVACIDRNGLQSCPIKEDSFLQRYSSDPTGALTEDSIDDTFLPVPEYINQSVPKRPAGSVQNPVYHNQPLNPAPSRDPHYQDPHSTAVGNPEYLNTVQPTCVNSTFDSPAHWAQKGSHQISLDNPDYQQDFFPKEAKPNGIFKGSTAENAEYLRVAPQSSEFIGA
Experiment: Ba/F3-EGFR-Exon20-NPG cell anti-proliferative assay (CellTiter 96 MTS, 72 h)
Conditions: read-out: EGFR exon 20 NPG insertion IC50
pIC50: −log10 of the molar value.

{"substance_smiles": "C=CC(=O)Nc1cc(Nc2ncc(CC)c(-c3cnn4ccccc34)n2)c(OC)cc1N(C)CCN(C)C", "pIC50": "> 7.00"}
{"substance_smiles": "C=CC(=O)Nc1cc(Nc2ncc(C(=O)OC(C)C)c(-c3nn(C)c4ccccc34)n2)c(OC)cc1N(C)CCN(C)C", "pIC50": "> 7.00"}
{"substance_smiles": "C=CC(=O)Nc1cc(Nc2ncc(Cl)c(-c3cnn4ccccc34)n2)c(OC)cc1N(C)CCN(C)CCF", "pIC50": "6.30 to 7.00"}
{"substance_smiles": "C=CC(=O)Nc1cc(Nc2ncc(C(=O)OCC3CC3)c(-c3cn(C)c4ccccc34)n2)c(OC)cc1N(C)CCN(C)C", "pIC50": "> 7.00"}
{"substance_smiles": "C=CC(=O)Nc1cc(Nc2ncc(Cl)c(-c3cn(C)c4ccccc34)n2)c(OC)cc1C#CC(C)(C)N(C)C", "pIC50": "6.30 to 7.00"}
{"substance_smiles": "C=CC(=O)Nc1cc(Nc2ncc(Cl)c(-c3cnn4ccccc34)n2)c(OC)cc1OCCN1CCCC1", "pIC50": "6.30 to 7.00"}
{"substance_smiles": "C=CC(=O)Nc1cc(Nc2ncc(C(=O)OCC(C)C)c(-c3cn(C)c4ccccc34)n2)c(OC)cc1N(C)CCN(C)C", "pIC50": "> 7.00"}

====

# maps each entry to its pIC50
Target: Her2 exon 20 YVMA insertion (A775_G776ins YVMA) (Homo sapiens (Human), UniProt P04626, INS775YVMA)
Sequence (P04626 other isoform, or with tags, fused parts or gaps ins YVMA behind 775): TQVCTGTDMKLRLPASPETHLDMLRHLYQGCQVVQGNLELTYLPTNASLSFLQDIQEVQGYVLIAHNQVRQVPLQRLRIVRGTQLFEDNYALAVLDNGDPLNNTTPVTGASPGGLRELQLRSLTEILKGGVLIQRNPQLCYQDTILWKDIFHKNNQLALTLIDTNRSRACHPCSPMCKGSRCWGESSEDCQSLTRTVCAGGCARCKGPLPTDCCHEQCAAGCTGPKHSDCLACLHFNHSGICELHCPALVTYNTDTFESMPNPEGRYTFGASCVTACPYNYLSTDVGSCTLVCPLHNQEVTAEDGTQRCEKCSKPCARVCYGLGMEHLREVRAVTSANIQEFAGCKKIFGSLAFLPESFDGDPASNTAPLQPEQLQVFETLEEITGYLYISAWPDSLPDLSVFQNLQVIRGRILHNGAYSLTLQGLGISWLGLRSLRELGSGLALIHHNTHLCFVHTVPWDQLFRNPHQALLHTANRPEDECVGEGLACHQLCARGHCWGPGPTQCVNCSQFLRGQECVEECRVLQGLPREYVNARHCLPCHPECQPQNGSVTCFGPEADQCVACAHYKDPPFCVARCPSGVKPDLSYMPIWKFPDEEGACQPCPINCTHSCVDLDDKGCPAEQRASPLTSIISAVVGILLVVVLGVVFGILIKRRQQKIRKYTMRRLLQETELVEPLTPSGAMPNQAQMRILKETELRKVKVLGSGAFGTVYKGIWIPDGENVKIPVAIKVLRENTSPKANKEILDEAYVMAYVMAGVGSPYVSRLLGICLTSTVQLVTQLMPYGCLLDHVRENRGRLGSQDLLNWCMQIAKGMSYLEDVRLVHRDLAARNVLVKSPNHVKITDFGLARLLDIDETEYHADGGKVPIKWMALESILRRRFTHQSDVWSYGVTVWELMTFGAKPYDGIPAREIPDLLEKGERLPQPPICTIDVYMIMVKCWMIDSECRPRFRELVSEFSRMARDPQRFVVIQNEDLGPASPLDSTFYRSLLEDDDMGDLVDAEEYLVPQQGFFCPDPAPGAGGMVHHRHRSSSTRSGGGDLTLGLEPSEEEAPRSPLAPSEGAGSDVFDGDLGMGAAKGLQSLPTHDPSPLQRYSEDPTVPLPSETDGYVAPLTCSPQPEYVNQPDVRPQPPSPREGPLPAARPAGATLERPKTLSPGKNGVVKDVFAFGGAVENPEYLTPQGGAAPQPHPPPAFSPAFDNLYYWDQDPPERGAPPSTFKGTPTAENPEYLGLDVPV
Assay: Ba/F3-Her2 Exon20 YVMA cell anti-proliferative assay (CellTiter 96 MTS, 72 h)
Conditions: Ba/F3-Her2 Exon20 YVMA cells
pIC50: −log10 of the molar value.
readout_label: pIC50

{"substance_smiles": "C=CC(=O)Nc1cc(Nc2ncc(Cl)c(-c3cnn4ccccc34)n2)c(OC)cc1N(C)CCN(CC)CC", "readout_label": "pIC50", "result": "6.00 to 6.30"}
{"substance_smiles": "C=CC(=O)Nc1cc(Nc2ncc(Cl)c(-c3cn(C)c4ccccc34)n2)c(OC)cc1C#CC(C)(C)N(C)C", "readout_label": "pIC50", "result": "6.00 to 6.30"}
{"substance_smiles": "C=CC(=O)Nc1cc(Nc2ncc(C(=O)OC(C)C)c(-c3c[nH]c4ccccc34)n2)c(OC)cc1N(C)CCN(C)C", "readout_label": "pIC50", "result": "> 7.00"}
{"substance_smiles": "C=CC(=O)Nc1cc(Nc2ncc(C(=O)O[C@@H]3CCOC3)c(-c3cn(C)c4ccccc34)n2)c(OC)cc1N(C)CCN(C)C", "readout_label": "pIC50", "result": "6.30 to 7.00"}
{"substance_smiles": "C=CC(=O)Nc1cc(Nc2ncc(Cl)c(-c3cnn4ccccc34)n2)c(OC)cc1OCCN1CCOCC1", "readout_label": "pIC50", "result": "< 6.00"}
{"substance_smiles": "C=CC(=O)Nc1cc(Nc2nccc(-c3c(C(N)=O)n(C)c4ccccc34)n2)c(OC)cc1N(C)CCN(C)C", "readout_label": "pIC50", "result": "6.00 to 6.30"}
{"substance_smiles": "C=CC(=O)Nc1cc(Nc2ncc(C(=O)OC3COC3)c(-c3cn(C)c4ccccc34)n2)c(OC)cc1N(C)CCN(C)C", "readout_label": "pIC50", "result": "> 7.00"}

====

Target: human EGFR exon 20 insertion ASV (V769_D770insASV) (Homo sapiens (Human), UniProt P00533, INS769ASV)
Test: Ba/F3-EGFR-Exon20-ASV cell anti-proliferative assay (CellTiter 96 MTS, 72 h);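 further: Ba/F3 cells bearing the EGFR exon 20 ASV insertion, a line able to proliferate without IL-3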
Details: Ba/F3-EGFR-Exon20-ASV cells
pIC50: −log10 of the molar value.

{"compound": "C=CC(=O)Nc1cc(Nc2ncc(C(=O)OC3COC3)c(-c3cn(C)c4ccccc34)n2)c(OC)cc1N(C)CCN(C)C", "pIC50": "> 7.00"}
{"compound": "C=CC(=O)Nc1cc(Nc2ncc(C(=O)OC(C)C)c(-c3cn(C)c4ccccc34)n2)c(OC)cc1N(C)CCNC", "pIC50": "> 7.00"}
{"compound": "C=CC(=O)Nc1cc(Nc2ncc(C(=O)OC(C)C)c(-n3ccc4ccccc43)n2)c(OC)cc1N(C)C[C@H]1CCCN1C", "pIC50": "> 7.00"}
{"compound": "C=CC(=O)Nc1cc(Nc2ncc(C(=O)OC)c(-c3cn(C)c4ccccc34)n2)c(OC)cc1CCCN(C)C", "pIC50": "6.30 to 7.00"}
{"compound": "C=CC(=O)Nc1cc(Nc2ncc(C(=O)OCC#N)c(-c3cn(C)c4ccccc34)n2)c(OC)cc1N(C)CCN(C)C", "pIC50": "> 7.00"}
{"compound": "C=CC(=O)Nc1cc(Nc2ncc(C(=O)OC(C)C)c(-c3cn(C(C)=O)c4ccccc34)n2)c(OC)cc1N(C)CCN(C)C", "pIC50": "> 7.00"}
{"compound": "C=CC(=O)Nc1ccc(OC)c(Nc2ncc(C#N)c(-c3cn(C)c4cc(OCC5CCCN5C)ccc34)n2)c1 (centres unmarked)", "pIC50": "6.00 to 6.30"}
{"compound": "C=CC(=O)Nc1cc(Nc2ncc(C(=O)OC3CN(C)C3)c(-c3cn(C)c4ccccc34)n2)c(OC)cc1N(C)CCN(C)C", "pIC50": "< 6.00"}
{"compound": "C=CC(=O)Nc1cc(Nc2nccc(-c3c(-c4ccccc4)n(C)c4ccccc34)n2)c(OC)cc1N(C)CCN(C)C", "pIC50": "6.30 to 7.00"}
{"compound": "C=CC(=O)Nc1cc(Nc2ncc(NC(=O)C(C)C)c(-c3cn(C)c4ccccc34)n2)c(OC)cc1N(C)CCN(C)C", "pIC50": "6.30 to 7.00"}
{"compound": "C=CC(=O)Nc1cc(Nc2nccc(-c3cn(C)c4cccc(C(=O)OC)c34)n2)c(OC)cc1N(C)CCN(C)C", "pIC50": "< 6.00"}
{"compound": "C=CC(=O)Nc1cc(Nc2ncc(C(=O)OC(C)C)c(-c3cn(C)c4ncccc34)n2)c(OC)cc1N(C)CCN(C)C", "pIC50": "> 7.00"}
{"compound": "C=CC(=O)Nc1cc(Nc2ncc(C(=O)OC(C)C)c(-c3cn(C)c4c(OC)cccc34)n2)c(OC)cc1N(C)CCN(C)C", "pIC50": "> 7.00"}
{"compound": "C=CC(=O)Nc1cc(Nc2ncc(C(=O)OC3CCC3)c(-c3cn(C)c4ccccc34)n2)c(OC)cc1N(C)CCN(C)C", "pIC50": "> 7.00"}

====

Target: Her2 exon 20 YVMA insertion (A775_G776ins YVMA) (Homo sapiens (Human), UniProt P04626, INS775YVMA)
Experiment: Ba/F3-Her2 Exon20 YVMA cell anti-proliferative assay (CellTiter 96 MTS, 72 h)
Conditions: Ba/F3-Her2 Exon20 YVMA cells

{"compound": "C=CC(=O)Nc1cc(Nc2ncc(C(=O)OC)c(-c3cn(C)c4ccccc34)n2)c(OC)cc1N(C)CCN(C)C", "IC50": "< 100 nM"}
{"compound": "C=CC(=O)Nc1ccc(OC)c(Nc2ncc(C#N)c(-c3cn(C)c4cc(OCCN5CCCC5)ccc34)n2)c1", "IC50": "500 to 1000 nM"}
{"compound": "C=CC(=O)Nc1cc(Nc2nccc(-c3cn(C)c4ccccc34)n2)c(OC)cc1N(C)CCNC", "IC50": "100 to 500 nM"}
{"compound": "C=CC(=O)Nc1cc(Nc2ncc(CC)c(-c3cnn4ccccc34)n2)c(OC)cc1N(C)CCN(C)C", "IC50": "100 to 500 nM"}
{"compound": "C=CC(=O)Nc1cc(Nc2ncc(Cl)c(-c3cnn4ccccc34)n2)c(OC)cc1OCCN1CCCC1", "IC50": "500 to 1000 nM"}
{"compound": "C=CC(=O)Nc1cc(Nc2ncc(C(=O)OC(C)C)c(-c3cn(C(C)=O)c4ccccc34)n2)c(OC)cc1N(C)CCN(C)C", "IC50": "< 100 nM"}
{"compound": "C=CC(=O)Nc1cc(Nc2ncc(C(=O)OC(C)C)c(-c3cnc4ccccn34)n2)c(OC)cc1N(C)CCN(C)C", "IC50": "< 100 nM"}
{"compound": "C=CC(=O)Nc1cc(Nc2ncc(C(=O)OC(C)C)c(-c3cn(C)c4ccccc34)n2)c(OC)cc1N(C)C[C@@H]1CCCN1C", "IC50": "< 100 nM"}
{"compound": "C=CC(=O)Nc1cc(Nc2ncc(Cl)c(-c3cnn4ccccc34)n2)c(OC)cc1OC(COC)CN(CC)CC (centres unmarked)", "IC50": "500 to 1000 nM"}
{"compound": "C=CC(=O)Nc1cc(Nc2ncc(C(=O)OC)c(-c3cn(C)c4ccccc34)n2)c(OC)cc1CCCN(C)C", "IC50": "500 to 1000 nM"}
{"compound": "C=CC(=O)Nc1cc(Nc2ncc(C(=O)OC(C)C)c(-c3cn(C)c4ccccc34)n2)c(OC)cc1N(C)CCN(C)C", "IC50": "< 100 nM"}
{"compound": "C=CC(=O)Nc1cc(Nc2ncc(C#N)c(-c3nn(C)c4ccccc34)n2)c(OC)cc1N(C)CCN(C)C", "IC50": "< 100 nM"}
{"compound": "C=CC(=O)Nc1ccc(OC)c(Nc2ncc(C#N)c(-c3cn(C)c4cc(OCCCN(C)C)ccc34)n2)c1", "IC50": "500 to 1000 nM"}
{"compound": "C=CC(=O)Nc1cc(Nc2nccc(-c3c(C(=O)NCCOC)n(C)c4ccccc34)n2)c(OC)cc1N(C)CCN(C)C", "IC50": "> 1000 nM"}
